# % Inhibition of Foot Edema annotations
Tested on: Carrageenan-Induced Edema in Rat Paws
assay remarks: Anti-inflammatory effect on carrageenan-induced edema in rat paws (oral)
Type: in vivo, Wister male rats
protocol conditions: 10 mg/kg oral, 1 hour before carrageenan; swelling at third hour; control taken as 100%
assay readout: % Inhibition of Foot Edema (%)

molecule_smiles=Br.NCc1c(O)c(I)cc2c1CCCC2 endpoint_value=55.6
molecule_smiles=Cl.NCc1cc2c(c(I)c1O)CCC2 endpoint_value=41.1
molecule_smiles=CC1(C)CCCc2c1cc(CN)c(O)c2I.Cl endpoint_value=44.1
molecule_smiles=Br.NCc1cc2c(c(I)c1O)CCCC2 endpoint_value=68.8

====

assay remarks: Diuretic effect on rats: urinary volume during a 5 hour period after oral administration
Assay type: in vivo, Wister male rats
protocol conditions: 3 mg/kg oral, starved rats, 5 hour period after administration; control taken as 100%
assay readout: Urinary volume relative to control (%)

compound=CN(C)Cc1cc2c(c(I)c1O)CCCC2.Cl assay_readout="Urinary volume relative to control" endpoint_value=232
compound=Br.NCc1c(O)c(I)cc2c1CCCC2 assay_readout="Urinary volume relative to control" endpoint_value=142
compound=Cl.NCc1cc2c(c(I)c1O)CCC2 assay_readout="Urinary volume relative to control" endpoint_value=138
compound="CC1CCc2c1cc(CN)c(O)c2I.Cl (centres unmarked)" assay_readout="Urinary volume relative to control" endpoint_value=208
compound=Br.NCc1cc2c(c(I)c1O)CCCC2 assay_readout="Urinary volume relative to control" endpoint_value=226

====

Tested on: Carrageenan-Induced Edema in Rat Paws
assay remarks: Anti-inflammatory effect on carrageenan-induced edema in rat paws (oral)
Type: in vivo, Wister male rats
protocol conditions: 30 mg/kg oral, 1 hour before carrageenan; swelling at third hour; control taken as 100%
# % Inhibition of Foot Edema annotations
assay readout: % Inhibition of Foot Edema (%)

molecule_smiles=CC1(C)CCCc2c1cc(CN)c(O)c2I.Cl study_system="Carrageenan-Induced Edema in Rat Paws" unit_annotation=% endpoint_value=66.3
molecule_smiles=Br.NCc1cc2c(c(I)c1O)CCCC2 study_system="Carrageenan-Induced Edema in Rat Paws" unit_annotation=% endpoint_value=69.6
molecule_smiles=Cl.NCc1cc2c(c(I)c1O)CCC2 study_system="Carrageenan-Induced Edema in Rat Paws" unit_annotation=% endpoint_value=55.8
molecule_smiles=Br.NCc1c(O)c(I)cc2c1CCCC2 study_system="Carrageenan-Induced Edema in Rat Paws" unit_annotation=% endpoint_value=68.8
